Target: UniProtKB P81908
Sequence (P81908 whole entry): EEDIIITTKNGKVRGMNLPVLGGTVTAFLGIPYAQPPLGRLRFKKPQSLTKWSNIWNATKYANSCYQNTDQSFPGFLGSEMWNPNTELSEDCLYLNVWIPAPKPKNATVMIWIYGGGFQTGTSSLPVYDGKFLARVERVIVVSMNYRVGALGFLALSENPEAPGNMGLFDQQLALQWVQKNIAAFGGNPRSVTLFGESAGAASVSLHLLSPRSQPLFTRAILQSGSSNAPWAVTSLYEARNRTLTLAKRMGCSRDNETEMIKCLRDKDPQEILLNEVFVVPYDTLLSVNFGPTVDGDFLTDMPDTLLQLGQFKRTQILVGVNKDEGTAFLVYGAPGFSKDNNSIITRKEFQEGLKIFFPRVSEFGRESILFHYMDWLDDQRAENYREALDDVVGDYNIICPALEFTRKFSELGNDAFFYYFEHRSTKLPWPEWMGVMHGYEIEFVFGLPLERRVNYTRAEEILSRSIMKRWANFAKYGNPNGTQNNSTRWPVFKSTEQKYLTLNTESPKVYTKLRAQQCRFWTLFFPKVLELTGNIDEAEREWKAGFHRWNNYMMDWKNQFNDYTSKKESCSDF
Assay Readout: log10 of IC50 (log10 of the value in µM)
Hello, just confirming the data are log10 of IC50 with units of µM.

Solved cases (5 shown):
Molecule	log10 of IC50
O=c1cc(OCc2cn(Cc3ccc(OC(F)(F)F)cc3)nn2)c2ccccc2o1	2.20
C[n+]1c2ccccc2cc2[n-]c3ccccc3c21 [cryptolepine, reference compound]	-0.21
O=c1ccc2ccc(OCc3cn(Cc4ccccc4C(F)(F)F)nn3)cc2o1 [19c]	1.89
O=c1cc(OCc2cn(Cc3ccccc3C(F)(F)F)nn2)c2ccccc2o1	0.85
O=c1cc(OCc2cn(Cc3c(Cl)cccc3Cl)nn2)c2ccccc2o1	1.61

Quick one: give me log10 of IC50 for each item below, same order please.
1. O=c1cc(OCc2cn(Cc3ccccc3)nn2)c2ccccc2o1
2. COc1cccc(Cn2cc(COc3ccc4ccc(=O)oc4c3C(C)=O)nn2)c1 [10a]
3. O=c1cc(OCc2cn(Cc3cccc(Cl)c3)nn2)c2ccccc2o1
4. O=c1cc(OCc2cn(Cc3ccccc3Cl)nn2)c2ccccc2o1
5. O=c1cc(OCc2cn(Cc3ccccc3OC(F)(F)F)nn2)c2ccccc2o1

2.33
0.87
1.79
1.63
1.00

All figures here come from paper PMC10061512.
